experiment: NALP3 inhibitors in yeast, repeat test, confirmation, luminescence, single concentration, retest (AID 488794); settings: yeast expressing human NALP3, luminescence read-out; at 10 µM
The campaign covered roughly 1,000 compounds. About 550 (55%) were called active. Cut-off read from the data, not from the text of the source: active = inhibition above about 50%; inactive = the rest. The set was probably picked from earlier hits. These entries were drawn from the full list.
The reply should name one outcome from active, inactive

Please review the following examples before continuing.
| givenSmiles | discreteLabel |
| --- | --- |
| CCSc1nc2sc3c(c2c(=O)n1-c1ccc(C)cc1)CCN(C)C3 | inactive |
| CCCN(CC1CC1)C(=S)NC(=O)c1ccccc1Br | inactive |
| Cn1c(=NC(=O)c2ccco2)sc2cccc(F)c21 | inactive |

Tell me the recorded outcome of this test for Oc1ccc(Br)cc1/C=N/Nc1ccccn1 .
inactive

Tell me the recorded outcome of this test for CCCNc1ncnc2sc(C)c(C)c12 .
inactive

Tell me the recorded outcome of this test for O=[N+]([O-])c1c(NCCO)cc(Sc2nc3ccccc3s2)c2nonc12 .
inactive

Tell me the recorded outcome of this test for Cn1c(=O)c(C(=O)Nc2ncccn2)c(O)c2ccccc21 .
active

Tell me the recorded outcome of this test for COc1cc(N2C(=O)CSC2=S)cc(OC)c1OC .
inactive

Hey, just so you know, these numbers are from PubChem BioAssay AID488794.
